Experiment: chemical genetic growth profiling, strain panel (AID 1159580);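 note: tested at 20 µM; growth read once vehicle control cultures reached saturation at 30 °C; 1 = growth at the plate median or of vehicle wells; lower values mean less growth of the strain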
Details: S. cerevisiae deletion strains, growth OD, locus YDR137W, strain rgp1
In all, about 5,500 compounds went through this assay and about 2,000 (36%) were called active. Roughly 18% stayed inconclusive and do not appear here. Cut-off read from the data, not from the text of the source: active = normalized growth mostly below about 0.91 (no sharp cut-off); inconclusive = no clear call, values can overlap the other calls; inactive = mostly above about 0.92. Some of the results follow.
Can you answer with just one of these options? label 1 for active, label 0 for inactive

Worked cases, answers included:
Nc1ccc(C(=O)Oc2ccccc2)c(O)c1 :: label 1
CC[C@]12C=CCN3CC[C@@]4(c5ccc(OC)cc5N(C)C4[C@@](O)(C(=O)OC)[C@@H]1OC(C)=O)[C@@H]32 (some centres not stated) :: label 0

# input Lab log entry: `COc1cccc2c1cc([N+](=O)[O-])c1c(C(=O)O)cc3c(c12)OCO3` — outcome as called in the assay?
# output label 0

# input Lab log entry: `COc1cc2cc[n+]3cc4c(OC)c(OC)ccc4cc3c2cc1OC` — outcome as called in the assay?
# output label 0

# input Lab log entry: `CCCCC1C(=O)N(c2ccccc2)N(c2ccccc2)C1=O` — outcome as called in the assay?
# output label 0

# input Lab log entry: `CN(C)CCC=C1c2ccccc2CCc2ccccc21` — outcome as called in the assay?
# output label 1

# input Lab log entry: `CCN(CC)CCNc1ccc(CO)c2sc3ccccc3c(=O)c12` — outcome as called in the assay?
# output label 0

# input Lab log entry: `O=c1c(-c2ccccc2)coc2cc(O)cc(O)c12` — outcome as called in the assay?
# output label 1

# input Lab log entry: `O=C(O)/C=C(\CC(=O)O)C(=O)O` — outcome as called in the assay?
# output label 0

# input Lab log entry: C=CCCCCCCCCCCCC(O)CC(O)CO (configuration not stated) — outcome as called in the assay?
# output label 0

# input Lab log entry: `CC(=O)Oc1c(-c2ccccc2)oc2c(CC=C(C)C)c3c(c(OC(C)=O)c2c1=O)C=CC(C)(C)O3` — outcome as called in the assay?
# output label 0

# input Lab log entry: `COC(=O)C1=C(C)NC(C)=C(C(=O)OC)C1c1ccccc1[N+](=O)[O-]` — outcome as called in the assay?
# output label 0

# input Lab log entry: `CC(C)=CCc1c2c(c(O)c3c(=O)c(O)c(-c4ccccc4)oc13)C=CC(C)(C)O2` — outcome as called in the assay?
# output label 0

# input Lab log entry: FC(F)(F)C(Cl)Br (configuration not stated) — outcome as called in the assay?
# output label 0

# input Lab log entry: COc1cc([C@@H]2c3cc4c(cc3C(O[C@@H]3O[C@@H]5CO[C@@H](c6cccs6)OC5[C@H](O)[C@H]3O)C3COC(=O)[C@@H]32)OCO4)cc(OC)c1O (some centres not stated) — outcome as called in the assay?
# output label 0

----------
Assay: chemical genetic growth profiling, strain panel (AID 1159580);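 note: tested at 20 µM; growth read once vehicle control cultures reached saturation at 30 °C; 1 = growth at the plate median or of vehicle wells; lower values mean less growth of the strain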
Settings: S. cerevisiae deletion strains, growth OD, locus YAL030W, strain snc1, active compounds read low
The campaign covered roughly 5,500 compounds. About 2,000 (36%) were called active. Not shown: some 18% with an inconclusive outcome. Some of the results follow.
experimentalEndpoint: normalized growth
# respond with the number and nothing more

# input Using the record for `CCCCCCCCCCCCCCCC[n+]1ccccc1` , report its normalized growth.
# output 0.0525

# input Using the record for `CC(=O)Oc1cc(-c2coc3cc(OC(C)=O)c(OC(C)=O)c(OC(C)=O)c3c2=O)cc(OC(C)=O)c1OC(C)=O` , report its normalized growth.
# output 0.969

# input Using the record for FC(F)(F)C(Cl)Br (centres undefined) , report its normalized growth.
# output 1.02

# input Using the record for `COc1cccc2c1cc([N+](=O)[O-])c1c(C(=O)O)cc3c(c12)OCO3` , report its normalized growth.
# output 1.02
